- System: HAP1 MTAP-intact cell line
- Procedure summary: SDMA in-cell western assay, HAP1 MTAP-intact
- Type: cell-based
- Stated conditions: Homo sapiens, HAP1, SDMA in-cell western, HAP1 MTAP-intact; read-out: MTAP HAP1 intact IC50
Property: IC50

[in] Sample C[C@@H]1CC[C@@H](c2ccc(F)nc2)N(C(=O)C(=O)Nc2cncc(C(N)=O)c2)C1 (racemic) [Compound 276] — what was its IC50?
[out] > 1000 nM

[in] Sample Cc1cc(NC(=O)C(=O)N2C[C@H](C)CC[C@H]2c2cccc3scnc23)cnc1N (single isomer, unassigned) [Compound 960] — what was its IC50?
[out] > 1000 nM

[in] Sample C[C@H]1CC[C@H](c2cc3[nH]ncc3s2)N(C(=O)C(=O)Nc2cncc(C(N)=O)c2)C1 (single isomer, unassigned) [Compound 873] — what was its IC50?
[out] > 1000 nM

[in] Sample Cc1cc(NC(=O)C(=O)N2CCCC[C@@H]2c2cccs2)cnc1N (single isomer, unassigned) [Compound 24] — what was its IC50?
[out] > 1000 nM

[in] Sample CNc1cccc([C@@H]2CCCCN2C(=O)C(=O)Nc2cnc(N)c(C)c2)c1 (single isomer, unassigned) [Compound 357] — what was its IC50?
[out] > 1000 nM

[in] Sample CC(=O)N1CCC(c2cccc([C@H]3CC[C@H](C)CN3C(=O)C(=O)Nc3cnc(N)c(C)c3)c2)CC1 (single isomer, unassigned) [Compound 324] — what was its IC50?
[out] 100 to 1000 nM

* * *

Hi there, I'd appreciate the recorded pIC50 for every entry that follows.
- Experimental system: PRMT5 (Homo sapiens, UniProt O14744)
- Construct: purchased Viva (custom protein)
- Sequence (O14744 whole entry): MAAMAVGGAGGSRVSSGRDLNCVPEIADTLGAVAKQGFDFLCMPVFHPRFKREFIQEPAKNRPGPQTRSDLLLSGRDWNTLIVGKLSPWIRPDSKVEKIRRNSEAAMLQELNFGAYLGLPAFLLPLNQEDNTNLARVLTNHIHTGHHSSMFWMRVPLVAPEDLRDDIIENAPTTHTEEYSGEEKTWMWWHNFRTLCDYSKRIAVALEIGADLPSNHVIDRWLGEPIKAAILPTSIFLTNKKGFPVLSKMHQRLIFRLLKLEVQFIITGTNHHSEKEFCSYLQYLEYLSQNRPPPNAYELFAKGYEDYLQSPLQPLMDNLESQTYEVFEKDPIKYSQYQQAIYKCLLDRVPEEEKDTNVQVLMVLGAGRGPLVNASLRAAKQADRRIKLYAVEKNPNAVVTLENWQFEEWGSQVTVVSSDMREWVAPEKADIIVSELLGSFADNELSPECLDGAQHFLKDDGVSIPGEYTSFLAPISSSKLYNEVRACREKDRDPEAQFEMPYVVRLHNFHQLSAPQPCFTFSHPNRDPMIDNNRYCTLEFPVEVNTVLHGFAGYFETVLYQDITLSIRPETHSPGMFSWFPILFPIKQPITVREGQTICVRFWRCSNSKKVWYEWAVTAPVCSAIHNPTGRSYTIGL
- Sequence (Q9BQA1 whole entry partner): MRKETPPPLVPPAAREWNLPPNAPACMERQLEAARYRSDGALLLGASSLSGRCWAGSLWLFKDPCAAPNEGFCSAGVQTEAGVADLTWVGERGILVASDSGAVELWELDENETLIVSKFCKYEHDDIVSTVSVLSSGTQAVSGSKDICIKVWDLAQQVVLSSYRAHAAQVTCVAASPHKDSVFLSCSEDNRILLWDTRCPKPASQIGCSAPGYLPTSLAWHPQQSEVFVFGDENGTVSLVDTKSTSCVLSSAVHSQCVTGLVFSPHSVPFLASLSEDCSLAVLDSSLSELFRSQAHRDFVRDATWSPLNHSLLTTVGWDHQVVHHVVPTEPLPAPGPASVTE
- Procedure summary: PRMT5 biochemical IC50 assay with no cofactor
- Stated conditions: PRMT5, no cofactor; read-out: No Cofactor/rel IC50
pIC50: −log10 of the molar value.

[in] Param readout= pIC50; system= PRMT5 (Homo sapiens, UniProt O14744); entry= Cc1cc(NC(=O)C(=O)N2C[C@@H](C)CC[C@@H]2c2cc(Cl)cc(Cl)c2)cnc1N (single isomer, unassigned) [Compound 660] ; returns value.
[out] < 6.30

[in] Param readout= pIC50; system= PRMT5 (Homo sapiens, UniProt O14744); entry= CCc1cc(NC(=O)C(=O)N2C[C@@H](C)CC[C@@H]2c2cc3[nH]ncc3s2)cnc1N (single isomer, unassigned) [Compound 967] ; returns value.
[out] < 6.30

[in] Param readout= pIC50; system= PRMT5 (Homo sapiens, UniProt O14744); entry= Cc1cc(NC(=O)C(=O)N2C[C@H](C)CC[C@H]2c2cc3cn[nH]c3s2)cnc1N (single isomer, unassigned) [Compound 1120] ; returns value.
[out] < 6.30

* * *

- Experimental system: PRMT5 (Homo sapiens, UniProt O14744)
- Construct: purchased Viva (custom protein)
- Procedure summary: PRMT5 biochemical IC50 assay with MTA as cofactor
- Stated conditions: PRMT5, MTA as cofactor; read-out: MTA IC50
pIC50: −log10 of the molar value.
Hi there, I'd appreciate the recorded pIC50 for every entry that follows.

[in] Param readout= pIC50; system= PRMT5 (Homo sapiens, UniProt O14744); entry= C[C@H]1CC[C@H](c2ccc3sccc3c2)N(C(=O)C(=O)Nc2cncc(C(N)=O)c2)C1 (single isomer, unassigned) ; returns value.
[out] > 7.30

[in] Param readout= pIC50; system= PRMT5 (Homo sapiens, UniProt O14744); entry= C[C@H]1CC[C@H](c2ccc(-c3cc[nH]n3)cc2)N(C(=O)C(=O)Nc2cncc(C(N)=O)c2)C1 (single isomer, unassigned) ; returns value.
[out] 6.30 to 7.30

[in] Param readout= pIC50; system= PRMT5 (Homo sapiens, UniProt O14744); entry= C[C@H]1CC[C@H](c2cc3cn[nH]c3s2)N(C(=O)C(=O)Nc2cncc(C(N)=O)c2)C1 (single isomer, unassigned) ; returns value.
[out] < 6.30

[in] Param readout= pIC50; system= PRMT5 (Homo sapiens, UniProt O14744); entry= Cc1ccc([C@H]2CC(F)(F)[C@H](C)CN2C(=O)C(=O)Nc2cnc(N)c(C)c2)cn1 (single isomer, unassigned) ; returns value.
[out] > 7.30

[in] Param readout= pIC50; system= PRMT5 (Homo sapiens, UniProt O14744); entry= C[C@H]1CC[C@H](c2ccc(NS(C)(=O)=O)cc2)N(C(=O)C(=O)Nc2cncc(C(N)=O)c2)C1 (single isomer, unassigned) ; returns value.
[out] > 7.30

[in] Param readout= pIC50; system= PRMT5 (Homo sapiens, UniProt O14744); entry= C[C@@H]1CC[C@@H](c2ccccc2)N(C(=O)C(=O)Nc2cncc(C(N)=O)c2)[C@H]1C (single isomer, unassigned) [Compound 482] ; returns value.
[out] > 7.30

[in] Param readout= pIC50; system= PRMT5 (Homo sapiens, UniProt O14744); entry= Cc1c(NC(=O)C(=O)N2[C@H](C)CCC[C@@H]2c2ccccc2)cnc(N)c1C (single isomer, unassigned) ; returns value.
[out] > 7.30

[in] Param readout= pIC50; system= PRMT5 (Homo sapiens, UniProt O14744); entry= CNC(=O)c1ccc([C@H]2CC[C@H](C)CN2C(=O)C(=O)Nc2cnc(N)c(C)c2)s1 (single isomer, unassigned) ; returns value.
[out] > 7.30

[in] Param readout= pIC50; system= PRMT5 (Homo sapiens, UniProt O14744); entry= Cc1cc(NC(=O)C(=O)N2C[C@H](C)CC[C@H]2c2cccc3scnc23)cnc1N (single isomer, unassigned) ; returns value.
[out] > 7.30

[in] Param readout= pIC50; system= PRMT5 (Homo sapiens, UniProt O14744); entry= COc1ccc([C@@H]2CC[C@@H](C)CN2C(=O)C(=O)Nc2cncc(C(N)=O)c2)cc1OC (racemic) ; returns value.
[out] > 7.30

[in] Param readout= pIC50; system= PRMT5 (Homo sapiens, UniProt O14744); entry= Cc1ncc(NC(=O)C(=O)N2C[C@H](C)CC[C@H]2c2ccc3c(c2)CCC(=O)N3)cc1C(F)F (single isomer, unassigned) [Compound 874] ; returns value.
[out] > 7.30

[in] Param readout= pIC50; system= PRMT5 (Homo sapiens, UniProt O14744); entry= C[C@@H]1CC[C@@H](c2ccc(C(F)(F)F)cc2)N(C(=O)C(=O)Nc2cncc(C(N)=O)c2)C1 (single isomer, unassigned) [Compound 508] ; returns value.
[out] < 6.30

* * *

- Experimental system: PRMT5 (Homo sapiens)
- Construct: purchased Viva (custom protein)
- Procedure summary: PRMT5 biochemical IC50 assay with MTA as cofactor
- Stated conditions: PRMT5, MTA as cofactor; read-out: MTA IC50
pIC50: −log10 of the molar value.
Hi there, I'd appreciate the recorded pIC50 for every entry that follows.

[in] Sample C[C@H]1CC[C@H](c2ccc3c(c2)CCCN3)N(C(=O)C(=O)Nc2cncc(C(N)=O)c2)C1 (single isomer, unassigned) — what was its pIC50?
[out] < 6.30

[in] Sample NC(=O)c1cncc(NC(=O)C(=O)N2CCCC[C@H]2c2ccccc2)c1 (single isomer, unassigned) — what was its pIC50?
[out] 6.30 to 7.30

[in] Sample Cc1cncc(NC(=O)C(=O)N2CCCCC2c2ccccc2)c1N (stereo not shown) — what was its pIC50?
[out] 6.30 to 7.30

[in] Sample Cc1cc(NC(=O)C(=O)N2C[C@@H](C)CC[C@@H]2c2ccc(C(F)(F)F)cc2)cnc1N (single isomer, unassigned) — what was its pIC50?
[out] < 6.30

[in] Sample Cc1cc(NC(=O)C(=O)N2C[C@H](C)CC[C@H]2c2ccc3[nH]c(N)nc3c2)cnc1N (racemic) — what was its pIC50?
[out] > 7.30

[in] Sample CNc1cccc([C@@H]2CCCCN2C(=O)C(=O)Nc2cnc(N)c(C)c2)c1 (single isomer, unassigned) — what was its pIC50?
[out] 6.30 to 7.30

[in] Sample Cc1cccc([C@H]2CC[C@H](C)CN2C(=O)C(=O)Nc2cncc(C(N)=O)c2)c1 (single isomer, unassigned) — what was its pIC50?
[out] > 7.30

* * *

- Experimental system: PRMT5 (Homo sapiens)
- Construct: purchased Viva (custom protein)
- Procedure summary: PRMT5 biochemical IC50 assay with SAM as cofactor
- Stated conditions: PRMT5, SAM as cofactor; read-out: SAM IC50
pIC50: −log10 of the molar value.
Hi there, I'd appreciate the recorded pIC50 for every entry that follows.

[in] Sample Cc1cc(NC(=O)C(=O)N2C[C@@H]3CC[C@@H](C3)[C@@H]2c2ccccc2)cnc1N (single isomer, unassigned) [Compound 62] — what was its pIC50?
[out] < 6.30

[in] Sample CCc1cc(NC(=O)C(=O)N2C[C@@H](C)CC[C@@H]2c2ccc3sc(C45CC(N(C)C)(C4)C5)nc3c2)cnc1N [Compound 1404] — what was its pIC50?
[out] > 7.30

[in] Sample CNC(=O)N1CCCC([C@@H]2CC[C@@H](C)CN2C(=O)C(=O)Nc2cnc(N)c(C)c2)C1 (mixture of isomers) [Compound 814] — what was its pIC50?
[out] 6.30 to 7.30

[in] Sample C[C@@H]1CC[C@@H]([C@H]2CC[C@@H](O)CC2)N(C(=O)C(=O)Nc2cncc(C(N)=O)c2)C1 (single isomer, unassigned) [Compound 393] — what was its pIC50?
[out] 6.30 to 7.30

[in] Sample Cc1cc(NC(=O)C(=O)N2C[C@@H](C)CC[C@@H]2c2ccc(N)nc2)cnc1N (single isomer, unassigned) [Compound 860] — what was its pIC50?
[out] < 6.30

[in] Sample CCc1cc(NC(=O)C(=O)N2C[C@@H](C)CC[C@@H]2c2ccc(N3CCC4(CCCN(C)C4)CC3)cc2)cnc1N (single isomer, unassigned) [Compound 1243] — what was its pIC50?
[out] 6.30 to 7.30
